Recorded Ki, one value per entry.
- SYSTEM UNDER TEST: Adenosine receptor A1 (Rattus norvegicus)
- Sequence (P25099 whole entry): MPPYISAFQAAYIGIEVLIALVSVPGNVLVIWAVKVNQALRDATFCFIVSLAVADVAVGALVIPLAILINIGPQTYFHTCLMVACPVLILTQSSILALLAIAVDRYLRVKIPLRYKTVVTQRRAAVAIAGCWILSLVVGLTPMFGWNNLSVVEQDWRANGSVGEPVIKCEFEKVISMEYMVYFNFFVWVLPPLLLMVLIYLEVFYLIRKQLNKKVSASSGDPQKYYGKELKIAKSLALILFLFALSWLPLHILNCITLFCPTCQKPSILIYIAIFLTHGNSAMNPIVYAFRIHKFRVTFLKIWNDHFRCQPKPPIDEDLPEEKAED

Please indicate Ki recorded for C[C@@H]1N=C2c3ncn(C4O[C@@H](CO)[C@H](O)[C@@H]4O)c3N=CN2[C@H]1c1ccccc1 (some centres not stated)
11.2 µM

Please indicate Ki recorded for OC[C@@H]1OC(n2cnc3c2N=CN2C[C@H](c4ccccc4)N=C32)[C@@H](O)[C@H]1O (some centres not stated)
4.54 µM

====

Record type: pKi measurement. Applies to: UniProt:P30543
Sequence (P30543 whole entry): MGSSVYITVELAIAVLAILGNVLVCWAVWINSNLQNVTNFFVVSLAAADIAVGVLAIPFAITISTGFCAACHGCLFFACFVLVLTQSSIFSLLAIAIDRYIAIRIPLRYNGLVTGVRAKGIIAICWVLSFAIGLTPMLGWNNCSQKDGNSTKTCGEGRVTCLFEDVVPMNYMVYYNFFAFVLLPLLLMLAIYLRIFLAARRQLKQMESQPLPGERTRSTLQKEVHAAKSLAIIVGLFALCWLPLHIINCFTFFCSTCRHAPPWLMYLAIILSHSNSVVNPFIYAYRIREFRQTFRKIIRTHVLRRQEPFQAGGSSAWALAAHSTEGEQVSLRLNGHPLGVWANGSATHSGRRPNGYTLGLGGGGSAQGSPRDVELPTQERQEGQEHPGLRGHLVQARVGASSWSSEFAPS
A value of pKi is the negative decimal logarithm of a concentration given in moles per litre.

OC[C@@H]1OC(n2cnc3c2N=CN2C[C@H](Cc4ccccc4)N=C32)[C@@H](O)[C@H]1O (some centres undefined) : 4.24
OC[C@@H]1OC(n2cnc3c2N=CN2C[C@@H](Cc4ccccc4)N=C32)[C@@H](O)[C@H]1O (some centres undefined) : 4.87
C[C@H]1N=C2c3ncn(C4O[C@@H](CO)[C@H](O)[C@@H]4O)c3N=CN2[C@@H]1c1ccccc1 (some centres undefined) : 4.26

Kindly consider the entry below.
Please indicate pKi recorded for CCCOC1=Nc2c(cnn2-c2ccccc2)C2=N[C@@H](C)[C@H](c3ccccc3)N12
4.35

====

Recorded Ratio, one value per entry.
- SYSTEM UNDER TEST: Adenosine receptors; A1 & A2a (Rattus norvegicus) (UniProt P25099+P30543)
- Sequence (P25099 whole entry, looked up): as the sequence (P25099 whole entry) above
- Sequence (P30543 whole entry, looked up): as the sequence (P30543 whole entry) above
- EXPERIMENT NOTES: Ratio of Ki for A2A and A1 receptors
- Format: protein assay

Sample records with Ratio:
CCCOC1=Nc2c(ncn2-c2ccccc2)C2=N[C@H](Cc3ccccc3)CN12 : 22
CCCOC1=Nc2c(cnn2-c2ccccc2)C2=N[C@@H](Cc3ccccc3)CN12 : 0.35

Please indicate Ratio recorded for CCCOC1=Nc2c(cnn2-c2ccccc2)C2=N[C@H](C)[C@@H](c3ccccc3)N12
1.5
